Parameter: normalized growth. Scope: all listed entries.
assayNotes: chemical genetic growth profiling, strain panel (AID 1159580);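 note: tested at 20 µM; growth read once vehicle control cultures reached saturation at 30 °C; 1 = growth at the plate median or of vehicle wells; lower values mean less growth of the strain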
measurementConditions: S. cerevisiae deletion strains, growth OD, locus YHR082C, strain KSP1, stronger effect = lower value
The whole screen tested about 5,500 compounds, of which about 2,000 (36%) were called active. Another 18% or so got no clear call; they are omitted. This is one part of the list.
Reply briefly: the number, and no unit.

[in] Sample `Cc1cc(Cl)ccc1NNC(=O)c1ccno1` — what was its normalized growth?
[out] 1

[in] Sample `Cc1ccc(-c2csc(-c3cccnc3)n2)c(C)c1` — what was its normalized growth?
[out] 0.901

[in] Sample `Cc1ccc2nc(-c3ccc(Cl)cc3)cn2c1` — what was its normalized growth?
[out] 1

[in] Sample CS(=NC(=O)c1cccc(Cl)c1)c1ccc(OC(=O)c2ccc(Cl)cc2)cc1 (configuration not stated) — what was its normalized growth?
[out] 1.06

[in] Sample `O=C(N/C=C/c1ccsc1)Nc1cc(C(F)(F)F)cc(C(F)(F)F)c1` — what was its normalized growth?
[out] 0.393

[in] Sample O=C1C(=O)N(CN2CCc3c([nH]c4ccccc34)C2C(F)(F)F)c2ccc(F)cc21 (configuration not stated) — what was its normalized growth?
[out] 0.614

[in] Sample CSC1=NNC(c2nn(C)cc2Cl)S1 (configuration not stated) — what was its normalized growth?
[out] 0.236

[in] Sample `N#CC(C#N)=C(SCc1c(Cl)cccc1Cl)SCc1c(Cl)cccc1Cl` — what was its normalized growth?
[out] 1.11
